ASSAYED TARGET: hFXR (Homo sapiens, UniProt Q96RI1)
Construct: expressed in transfected cells; host or cells: CV-1 cells
Sequence (Q96RI1 1-486): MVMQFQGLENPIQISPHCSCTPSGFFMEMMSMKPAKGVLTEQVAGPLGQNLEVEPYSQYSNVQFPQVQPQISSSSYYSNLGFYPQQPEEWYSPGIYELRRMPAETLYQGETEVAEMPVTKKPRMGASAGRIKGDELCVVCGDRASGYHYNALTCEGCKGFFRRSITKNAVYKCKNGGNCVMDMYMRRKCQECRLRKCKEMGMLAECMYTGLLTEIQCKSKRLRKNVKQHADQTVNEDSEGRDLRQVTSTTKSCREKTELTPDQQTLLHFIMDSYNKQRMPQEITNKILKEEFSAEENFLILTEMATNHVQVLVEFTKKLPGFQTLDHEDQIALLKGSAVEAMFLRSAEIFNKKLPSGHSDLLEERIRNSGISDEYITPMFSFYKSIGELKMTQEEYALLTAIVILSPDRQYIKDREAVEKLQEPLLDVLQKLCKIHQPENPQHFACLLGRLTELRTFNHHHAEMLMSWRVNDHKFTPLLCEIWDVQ
Sequence (P19793 1-462 partner): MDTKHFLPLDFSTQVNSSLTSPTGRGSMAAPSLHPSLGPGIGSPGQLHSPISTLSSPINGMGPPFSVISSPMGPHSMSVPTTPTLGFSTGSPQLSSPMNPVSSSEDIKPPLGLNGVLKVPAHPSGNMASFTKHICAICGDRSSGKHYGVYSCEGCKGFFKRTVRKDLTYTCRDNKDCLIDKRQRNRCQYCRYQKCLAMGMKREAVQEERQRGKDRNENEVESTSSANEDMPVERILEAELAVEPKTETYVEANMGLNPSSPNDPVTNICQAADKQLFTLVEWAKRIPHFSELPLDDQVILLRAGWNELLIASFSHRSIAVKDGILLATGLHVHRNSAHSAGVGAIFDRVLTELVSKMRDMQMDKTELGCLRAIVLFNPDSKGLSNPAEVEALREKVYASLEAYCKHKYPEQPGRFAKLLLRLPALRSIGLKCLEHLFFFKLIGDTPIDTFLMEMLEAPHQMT
RUN DESCRIPTION: In Vitro FXR Assay (TK): TK-ECRE-luc reporter in transfected CV-1 cells
Assay type: cell-based
CONDITION CONTEXT: 18 hrs, luminescence, maximum efficacy of <25% of the Fexarmine control classified as '+'
pEC50: −log10 of the molar value.
PROPERTY MEASURED: pEC50

Fill in pEC50 for each of the 4 compounds listed.
1. COc1ccc([C@H]2CC[C@H](CN(c3cc(-c4cnc(C(C)C)s4)ccn3)C(=O)[C@H]3CC[C@H](OC(=O)N4CC(O)C4)CC3)CC2)cc1C [Compound 7.04]
2. COc1ccc([C@H]2CC[C@H](CN(c3cc(-c4coc(C(C)C)n4)ccn3)C(=O)[C@H]3CC[C@H](OC(=O)N4CCOCC4)CC3)CC2)nc1C [Compound 6]
3. CNCCOCC(=O)N[C@H]1CC[C@H](C(=O)N(C[C@H]2CC[C@H](c3ccc(OC)c(C)c3)CC2)c2cccc(-c3cnc(C4CC4)s3)c2)CC1 [Compound 32.06]
4. COc1ccc([C@H]2CC[C@H](CN(c3cccc(-c4cnn(C(C)C)c4)c3)C(=O)[C@H]3CC[C@H](OC(=O)N4CC(N(C)C)C4)CC3)CC2)nc1C [Compound 7.53]

Output line:
["≥ 6.60", "≥ 6.60", "≤ 6.00", "≥ 6.60"]

---

ASSAYED TARGET: hFXR (Homo sapiens, UniProt Q96RI1)
Sequence (Q96RI1 1-486): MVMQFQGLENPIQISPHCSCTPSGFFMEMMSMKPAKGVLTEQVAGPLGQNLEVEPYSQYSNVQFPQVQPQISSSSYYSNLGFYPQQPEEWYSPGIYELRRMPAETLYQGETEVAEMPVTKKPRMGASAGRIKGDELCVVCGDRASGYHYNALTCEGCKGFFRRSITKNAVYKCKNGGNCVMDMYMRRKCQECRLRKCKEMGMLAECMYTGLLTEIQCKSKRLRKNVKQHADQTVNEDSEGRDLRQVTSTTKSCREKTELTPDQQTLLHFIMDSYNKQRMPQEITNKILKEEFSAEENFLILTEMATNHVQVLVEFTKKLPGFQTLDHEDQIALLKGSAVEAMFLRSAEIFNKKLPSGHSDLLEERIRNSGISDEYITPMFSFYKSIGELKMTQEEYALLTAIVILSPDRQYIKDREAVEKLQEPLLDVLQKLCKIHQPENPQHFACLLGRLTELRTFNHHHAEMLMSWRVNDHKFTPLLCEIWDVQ
Sequence (P19793 1-462 partner): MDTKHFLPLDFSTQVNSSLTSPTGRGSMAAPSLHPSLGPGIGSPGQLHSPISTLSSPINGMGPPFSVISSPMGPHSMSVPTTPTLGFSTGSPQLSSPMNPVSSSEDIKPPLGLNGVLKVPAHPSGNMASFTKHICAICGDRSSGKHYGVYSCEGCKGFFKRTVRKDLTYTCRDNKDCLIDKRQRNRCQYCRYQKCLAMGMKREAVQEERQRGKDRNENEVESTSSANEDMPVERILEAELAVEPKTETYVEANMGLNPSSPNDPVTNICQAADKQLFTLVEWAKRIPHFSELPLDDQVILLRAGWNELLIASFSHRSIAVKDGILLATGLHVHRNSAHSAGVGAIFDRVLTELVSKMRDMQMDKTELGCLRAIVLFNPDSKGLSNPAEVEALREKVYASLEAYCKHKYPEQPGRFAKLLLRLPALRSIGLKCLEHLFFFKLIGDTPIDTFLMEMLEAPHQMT
RUN DESCRIPTION: In Vitro FXR Assay (TK): TK-ECRE-luc reporter in transfected CV-1 cells
CONDITION CONTEXT: 18 hrs, luminescence, maximum efficacy of <25% of the Fexarmine control classified as '+'
pEC50: −log10 of the molar value.
Field: pEC50. Provide a value for each of the compounds that follow.

Observe how each entry below is paired with its result.
INSERT INTO results (line_notation, assayed_target, observed_result) VALUES
  ('COC(=O)NC[C@H]1CC[C@H](C(=O)N(C[C@H]2CC[C@H](c3ccc(OC)c(C)c3)CC2)c2cccc(-c3cnn(C4CC4)c3)c2)CC1', 'hFXR (Homo sapiens, UniProt Q96RI1)', '≥ 6.60'),
  ('COc1ncc([C@H]2CC[C@H](CN(c3cc(-c4coc(C5CC5)n4)ccn3)C(=O)[C@H]3CC[C@H](OC(=O)N4CC(O)C4)CC3)CC2)cc1C', 'hFXR (Homo sapiens, UniProt Q96RI1)', '≥ 6.60');

Next, consider the following compound.
Input line: Entry COc1ncc(-c2cccc(N(C[C@H]3CC[C@H](c4ccc(OC)c(C)c4)CC3)C(=O)[C@H]3CC[C@H](C(=O)NS(C)(=O)=O)CC3)c2)s1 : reported pEC50 = ?
Output line: ≥ 6.60

---

Field: pEC50. Provide a value for each of the molecules that follow.
ASSAYED TARGET: hFXR (Homo sapiens, UniProt Q96RI1)
Sequence (Q96RI1 1-486): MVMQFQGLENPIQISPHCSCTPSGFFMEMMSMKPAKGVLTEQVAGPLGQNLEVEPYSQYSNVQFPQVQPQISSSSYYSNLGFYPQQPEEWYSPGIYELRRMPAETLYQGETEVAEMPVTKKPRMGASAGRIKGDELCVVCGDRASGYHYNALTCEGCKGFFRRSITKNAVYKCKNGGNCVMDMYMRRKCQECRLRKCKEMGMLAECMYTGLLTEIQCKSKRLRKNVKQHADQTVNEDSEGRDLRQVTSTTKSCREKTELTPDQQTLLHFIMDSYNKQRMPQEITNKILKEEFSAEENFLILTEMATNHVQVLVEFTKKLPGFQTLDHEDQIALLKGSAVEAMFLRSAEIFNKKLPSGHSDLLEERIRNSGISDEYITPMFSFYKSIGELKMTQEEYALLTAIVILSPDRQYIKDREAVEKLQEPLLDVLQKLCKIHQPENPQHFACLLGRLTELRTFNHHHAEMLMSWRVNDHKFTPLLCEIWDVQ
Sequence (P19793 1-462 partner): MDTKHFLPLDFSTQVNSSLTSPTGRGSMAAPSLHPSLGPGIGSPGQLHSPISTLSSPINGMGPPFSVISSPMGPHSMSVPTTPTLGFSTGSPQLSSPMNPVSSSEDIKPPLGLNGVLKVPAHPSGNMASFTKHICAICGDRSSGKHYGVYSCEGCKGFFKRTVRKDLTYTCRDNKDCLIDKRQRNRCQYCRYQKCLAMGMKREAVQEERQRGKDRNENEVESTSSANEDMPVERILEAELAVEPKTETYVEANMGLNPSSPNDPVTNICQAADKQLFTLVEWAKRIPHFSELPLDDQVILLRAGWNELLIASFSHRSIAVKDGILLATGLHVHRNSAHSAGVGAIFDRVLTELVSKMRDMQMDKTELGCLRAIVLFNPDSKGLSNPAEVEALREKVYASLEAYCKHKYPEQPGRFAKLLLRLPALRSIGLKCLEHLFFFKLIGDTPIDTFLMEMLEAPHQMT
RUN DESCRIPTION: In Vitro FXR Assay (TK): TK-ECRE-luc reporter in transfected CV-1 cells
CONDITION CONTEXT: 18 hrs, luminescence, maximum efficacy of <25% of the Fexarmine control classified as '+'
pEC50: −log10 of the molar value.

Observe how each entry below is paired with its result.
INSERT INTO measurements (molecule, observed_result) VALUES
  ('COc1ccc([C@H]2CC[C@H](CN(c3cc(-c4coc(C5CC5)n4)ccn3)C(=O)[C@H]3CC[C@H](C(=O)OC)CC3)CC2)nc1C [Compound 18.23]', '≥ 6.60'),
  ('COc1ccc([C@H]2CC[C@H](CN(c3cc(-c4cnn(C(C)C)c4)ccn3)C(=O)[C@H]3CC[C@H](CC(=O)O)CC3)CC2)cc1C [Compound 20.15]', '≥ 6.60'),
  ('COc1ccc([C@H]2CC[C@H](CN(c3cc(-c4cnc(C5CC5)s4)ccn3)C(=O)[C@H]3CC[C@H](OC(=O)N4CC(O)C4)CC3)CC2)cc1C [Compound 7.03]', '≥ 6.60');

Fill in pEC50 for each of the 3 molecules listed.
1. COc1ccc([C@H]2CC[C@H](CN(c3cccc(-c4coc(C(C)C)n4)c3)C(=O)[C@H]3CC[C@H](OC(=O)NCCCO)CC3)CC2)nc1C [Compound 6.49]
2. COc1ccc([C@H]2CC[C@H](CN(c3cccc(-c4cnn(C5CC5)c4)c3)C(=O)[C@H]3CC[C@H](OC(=O)N4CC(O)C4)CC3)CC2)cc1C [Compound 4.25]
3. CCCOC(=O)[C@H]1CC[C@H](C(=O)N(C[C@H]2CC[C@H](c3ccc(OC)c(C)n3)CC2)c2cc(-c3cnn(C4CC4)c3)ccn2)CC1 [Compound 22.06]

Output line:
["≥ 6.60", "≥ 6.60", "6.00 to 6.60"]

Hello, the source for this data is patent US20220089575A1, in case you need it.
